Data credit: the METLIN SMRT retention time set (Domingo-Almenara et al. 2019)

# ASSAY_OVERVIEW: gradient 5% acetonitrile 3 min, to 50% in 2 min, to 85% in 15 min, held 3 min, 100 µL/min
# APPLIED_CONDITIONS: column: Zorbax Extend-C18 2.1 x 50 mm; eluents: water / acetonitrile, 0.1% formic acid
MEASUREMENT_KIND: RP-LC retention time (s)

MOLECULE: CNS(=O)(=O)c1cccnc1Nc1ccc(F)c(Cl)c1
VALUE_OBSERVED: 973

I: Cc1nc(C(=O)NCc2ccc(F)cc2Cl)c(C)o1
II: Cc1ccc(-c2coc(-c3ccc(NC(=O)c4cccs4)cc3)n2)c(C)c1
III: CCOC(=O)c1nc(NCCN2CCOCC2)c2ccccc2n1
**Query** List the 3 entries from lowest RP-LC retention time to highest RP-LC retention time value. Enter labels, ranked according to the request.
**Result** III, I, II
(III: 584 s, I: 874 s, II: 1270 s)

P: O=C(Nc1ccc2c(c1)OCO2)N1CCN(Cc2ccccc2)c2ncccc21
Q: COc1ccc(-c2noc(-c3nnn4c3COC(c3ccc(Cl)cc3)C4)n2)c(OC)c1 (stereo not given)
**Query** Between the two listed entries P and Q , which has its RP-LC retention time at the higher number? Answer by quoting the chosen item's label.
**Result** Q

---

# ASSAY_OVERVIEW: gradient 5% acetonitrile 3 min, to 50% in 2 min, to 85% in 15 min, held 3 min, 100 µL/min
# APPLIED_CONDITIONS: column: Zorbax Extend-C18 2.1 x 50 mm; eluents: water / acetonitrile, 0.1% formic acid
MEASUREMENT_KIND: RP-LC retention time (s)

For orientation, consider the following solved cases.
COMPOUND: C[C@H]1CN(C(=O)Nc2ccc(Cl)cc2)C[C@@H]1c1nc(-c2ccccc2)no1
MEASUREMENT_KIND: RP-LC retention time
VALUE_OBSERVED: 1080
--
COMPOUND: O=C(Nc1cccc(F)c1)C1CCCN(c2nnc3ccc(Cl)cn23)C1 (stereo not given)
MEASUREMENT_KIND: RP-LC retention time
VALUE_OBSERVED: 806
--
COMPOUND: O=C(CCc1nnc2c3cc(-c4ccccc4)nn3ccn12)N1CCC2(CC1)OCCO2
MEASUREMENT_KIND: RP-LC retention time
VALUE_OBSERVED: 686

I: Cc1cccc(-c2nnc(Cc3nc(C(C)(C)C)no3)o2)c1
II: C=CCN1CCN(C(=O)c2ccc3c(c2)Sc2ncccc2C(=O)N3CC)CC1
**Query** Given the listed items, does I or II have the lesser reported RP-LC retention time? Answer by quoting the chosen item's label.
**Result** II
(II: 564 s, I: 1000 s)

---

# ASSAY_OVERVIEW: gradient 5% acetonitrile 3 min, to 50% in 2 min, to 85% in 15 min, held 3 min, 100 µL/min
# APPLIED_CONDITIONS: column: Zorbax Extend-C18 2.1 x 50 mm; eluents: water / acetonitrile, 0.1% formic acid
MEASUREMENT_KIND: RP-LC retention time (s)

For orientation, consider the following solved cases.
COMPOUND: O=C(CCc1c(-c2ccccc2)nc2ccccn12)Nc1ccc(F)cc1Cl
VALUE_OBSERVED: 795

COMPOUND: CN1CCCc2cc(C(CNC(=O)C(=O)NCc3ccc4c(c3)OCO4)N3CCCCC3)ccc21 (stereo not given)
VALUE_OBSERVED: 734

COMPOUND: O=S(=O)(c1cccs1)N1CCc2nc(-c3ccc(F)cc3)ncc2C1
VALUE_OBSERVED: 1030

P: Cc1ccccc1-c1noc(CN2C(=O)C(C)Oc3ccccc32)n1 (stereo not given)
Q: O=C(c1ccoc1)N1CCCC(c2nc(-c3ccc(F)cc3)n[nH]2)C1 (stereo not given)
**Query** Given the listed items, does P or Q have the lesser reported RP-LC retention time? Answer by quoting the chosen item's label.
**Result** Q
